Reference source for all entries: patent US6376497B1

System: Cryptococcus neoformans B. 42419
ASSAY NOTES: In vitro antifungal activity, microbroth dilution MIC
Format: cell-based
TEST SETTINGS: RPMI-1640, 35° C., 4 to 48 hours, no growth observed
READOUT NAME: Minimal inhibitory concentration(MIC), Cry. neoformans B. 42419

Minimal inhibitory concentration(MIC), Cry. neoformans B. 42419 reported for this compound FC(=C(c1cc(Cl)cc(Cl)c1)C(F)(F)F)N1CCN(c2ccc(OCC3COC(Cn4ccnc4)(c4ccc(F)cc4F)O3)cc2)CC1 (mixture of isomers) : 0.39 µg/mL

Minimal inhibitory concentration(MIC), Cry. neoformans B. 42419 reported for this compound Cc1cccc(C(=C(F)N2CCN(c3ccc(OCC4COC(Cn5ccnc5)(c5ccc(F)cc5F)O4)cc3)CC2)C(F)(F)F)c1 (mixture of isomers) : 0.78 µg/mL

Minimal inhibitory concentration(MIC), Cry. neoformans B. 42419 reported for this compound CCc1ccc(C=C(F)OCC2COC(Cn3cncn3)(c3ccc(Cl)cc3Cl)O2)cc1 (mixture of isomers) : 3.13 µg/mL

Minimal inhibitory concentration(MIC), Cry. neoformans B. 42419 reported for this compound COc1cccc(C=C(F)Oc2ccc(OCC3COC(Cn4ccnc4)(c4ccc(Cl)cc4Cl)O3)cc2)c1 (mixture of isomers) : 6.25 µg/mL

Minimal inhibitory concentration(MIC), Cry. neoformans B. 42419 reported for this compound Cc1cc(C)cc(C(=C(F)OCC2COC(Cn3cncn3)(c3ccc(Cl)cc3Cl)O2)C(F)(F)F)c1 (mixture of isomers) : >100 µg/mL

Minimal inhibitory concentration(MIC), Cry. neoformans B. 42419 reported for this compound FC(Oc1ccc(OCC2COC(Cn3cncn3)(c3ccc(Cl)cc3Cl)O2)cc1)=C(c1ccccc1)C(F)(F)F (mixture of isomers) : 1.56 µg/mL
